Field: pEC50. Provide a value for each of the compounds that follow.
Target: pregnane X receptor (PXR) (Homo sapiens)
Sequence (O75469 1-434): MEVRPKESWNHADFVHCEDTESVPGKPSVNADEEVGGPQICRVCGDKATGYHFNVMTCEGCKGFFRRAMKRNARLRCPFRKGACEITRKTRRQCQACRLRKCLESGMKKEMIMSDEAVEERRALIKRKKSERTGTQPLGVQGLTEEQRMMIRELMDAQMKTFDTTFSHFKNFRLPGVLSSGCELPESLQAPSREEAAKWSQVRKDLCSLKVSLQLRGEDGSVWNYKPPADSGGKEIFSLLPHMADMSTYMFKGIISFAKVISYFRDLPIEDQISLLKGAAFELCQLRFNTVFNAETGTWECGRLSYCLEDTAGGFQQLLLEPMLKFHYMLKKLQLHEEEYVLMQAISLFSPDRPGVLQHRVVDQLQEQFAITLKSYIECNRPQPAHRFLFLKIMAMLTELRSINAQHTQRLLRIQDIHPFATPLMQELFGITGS
Sequence (P19793 1-462 partner): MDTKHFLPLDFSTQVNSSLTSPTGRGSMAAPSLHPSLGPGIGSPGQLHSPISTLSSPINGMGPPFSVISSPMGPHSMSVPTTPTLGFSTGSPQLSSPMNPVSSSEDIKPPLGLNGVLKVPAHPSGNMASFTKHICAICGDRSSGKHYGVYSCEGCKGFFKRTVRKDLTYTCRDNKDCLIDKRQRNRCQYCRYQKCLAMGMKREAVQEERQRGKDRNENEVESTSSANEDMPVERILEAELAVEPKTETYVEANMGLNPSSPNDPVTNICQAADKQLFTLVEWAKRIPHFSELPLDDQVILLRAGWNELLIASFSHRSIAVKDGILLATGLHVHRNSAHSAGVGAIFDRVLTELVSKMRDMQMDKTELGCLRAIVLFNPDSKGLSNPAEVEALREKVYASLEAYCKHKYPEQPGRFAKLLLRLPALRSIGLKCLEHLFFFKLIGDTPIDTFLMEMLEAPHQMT
Assay: PXR assay (CYP3A4-SEAP transactivation assay, PCSTA)
Conditions: HEP G2 cells
Give bare numbers, as −log10 of the molar value.

See these solved cases before continuing.
O=S(=O)(NC1CC(c2cc(F)ccc2F)(S(=O)(=O)c2ccc(F)c(F)c2)C1)C(F)(F)F (stereo not shown) ... 5.90
O=S(=O)(N[C@H]1C[C@@](c2cc(F)ccc2F)(S(=O)(=O)c2ccc(Cl)cc2)C1)C(F)(F)F ... 5.46
O=S(=O)(NC1CC(c2cc(F)ccc2F)(S(=O)(=O)c2ccc(C(F)(F)F)cc2)C1)C(F)(F)F (stereo not shown) ... 5.28
COC(=O)CCCN([C@H]1C[C@@](c2cc(F)ccc2F)(S(=O)(=O)c2ccc(Cl)cc2)C1)S(=O)(=O)C(F)(F)F ... 5.92
CN(C1CC(c2cc(F)ccc2F)(S(=O)(=O)c2ccc(Cl)cc2)C1)S(=O)(=O)C(F)(F)F (stereo not shown) [Example 13] ... 5.90
N#Cc1ccc(F)cc1[C@]1(S(=O)(=O)c2ccc(Cl)cc2)C[C@@H](NS(=O)(=O)C(F)(F)F)C1 ... 6.15

pEC50 recorded for this compound, `O=S(=O)([N-][C@H]1C[C@@](c2cc(F)ccc2F)(S(=O)(=O)c2ccc(Cl)cc2)C1)C(F)(F)F.[K+]` , is 5.47

Data credit: patent US8759579B2
